Recorded measurements of pKd, one per entry
Experimental Target: T1, human FcRH5 protein fragment (soluble) (human, UniProt Q96RD9 16-851)
T1 construct: whole entry named; also called soluble human FcRH5; Human FcRH5 (BIACORE analyte)
T1 sequence: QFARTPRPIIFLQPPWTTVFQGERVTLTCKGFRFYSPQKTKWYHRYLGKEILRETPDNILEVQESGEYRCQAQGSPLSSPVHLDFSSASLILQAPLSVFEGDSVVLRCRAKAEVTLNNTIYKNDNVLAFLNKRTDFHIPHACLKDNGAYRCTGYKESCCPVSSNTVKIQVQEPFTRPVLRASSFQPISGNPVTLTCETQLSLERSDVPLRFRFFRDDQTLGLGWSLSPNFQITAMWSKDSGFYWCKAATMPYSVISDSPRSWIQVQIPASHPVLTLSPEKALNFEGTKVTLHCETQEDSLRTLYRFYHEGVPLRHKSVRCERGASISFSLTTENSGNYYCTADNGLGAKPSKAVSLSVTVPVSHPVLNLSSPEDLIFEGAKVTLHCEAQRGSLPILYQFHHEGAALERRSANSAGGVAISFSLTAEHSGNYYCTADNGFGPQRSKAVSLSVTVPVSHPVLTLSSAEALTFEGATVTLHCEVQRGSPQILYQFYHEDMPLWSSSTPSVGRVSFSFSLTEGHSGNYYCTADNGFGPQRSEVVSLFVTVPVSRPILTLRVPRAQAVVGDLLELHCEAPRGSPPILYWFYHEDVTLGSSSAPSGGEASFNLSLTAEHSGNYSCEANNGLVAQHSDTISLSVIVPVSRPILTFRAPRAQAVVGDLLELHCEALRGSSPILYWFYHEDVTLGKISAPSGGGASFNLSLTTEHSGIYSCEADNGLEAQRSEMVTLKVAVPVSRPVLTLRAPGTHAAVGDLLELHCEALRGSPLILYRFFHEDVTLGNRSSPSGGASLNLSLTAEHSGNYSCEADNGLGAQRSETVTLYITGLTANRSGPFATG
Experiment Notes: SPR (BIACORE), IgG captured via anti-human IgG, FcRH5 protein fragment as analyte (100 and 500 nM)
Protocol: Briefly, a human IgG capture surface was generated on a Series S CM5 chip using amine coupling and the human IgG capture kit (GE Life Sciences, Piscataway, NJ). Test antibodies were then captured on flow cells 2, 3, or 4, with flow cell 1 used as a reference. […] Interactions were assessed at 25° C. in 10 mM HEPES pH7.4, 150 mM NaCl, and 0.05% Tween 20 (HBSP). […] Kinetic information was calculated by fitting data to a 1:1 binding model. […]
Please treat pKd as minus the base-10 logarithm of the molar concentration.

hu1G7.v1 heavy chain W52F with light chain of hu1G7.v1.3 (antibody, V domains shown, human IgG) VH: EVQLVESGPGLVKPSETLSLTCTVSGFSLTRFGVHWVRQPPGKGLEWLGVIFRGGSTDYNAAFMSRLTISKDNSKNQVSLKLSSVTAADTAVYYCSNHYYGSSDYALDNWGQGTLVTVSS VL: DIQMTQSPSSLSASVGDRVTITCKASQDVRNIVVWFQQKPGKAPKLLIYSGSYRYSGVPSRFSGSGSGTDFTLTISSLQPEDFATYYCQQQYSPPYTFGQGTKVEIK	6.75
hu1G7.v1 heavy chain W52F with light chain of hu1G7.v1.4 (antibody, V domains shown, human IgG) VH: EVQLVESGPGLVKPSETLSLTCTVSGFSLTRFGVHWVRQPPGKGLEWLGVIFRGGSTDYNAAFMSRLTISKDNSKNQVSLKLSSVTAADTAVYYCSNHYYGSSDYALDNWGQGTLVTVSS VL: DIQMTQSPSSLSASVGDRVTITCKASQDVRNLVVWFQQKPGKAPKLLIYSGSYRYSGVPSRFSGSGSGTDFTLTISSLQPEDFATYYCQQHYSPPYTFGQGTKVEIK	6.92

Now look at this entry.
Retrieve pKd measured for hu1G7.v1 heavy chain M64V with light chain of hu1G7.v1.5 (antibody, V domains shown, human IgG) VH: EVQLVESGPGLVKPSETLSLTCTVSGFSLTRFGVHWVRQPPGKGLEWLGVIWRGGSTDYNAAFVSRLTISKDNSKNQVSLKLSSVTAADTAVYYCSNHYYGSSDYALDNWGQGTLVTVSS VL: DIQMTQSPSSLSASVGDRVTITCKASQDVSNIVVWFQQKPGKSPKLLIYSGYYRYTGVPSRFSGSGSGTDFTLTISSLQPEDFATYYCQQQFQPPYTFGQGTKVEIK and print it.
8.60
